Cited source for all entries: patent US8268848B2

- ASSAY SYSTEM: OX1 (Homo sapiens, UniProt O43613)
- ASSAY OVERVIEW: Measurement of orexin receptor-binding ability ([125I]-OX-A, cell membranes, OX1)
- Design: expressed in transfected cells; host or cells: CHO cells (membrane preparation)
- EXPERIMENTAL PARAMETERS: membranes of recombinant CHO cells expressing OX1, 0.2 nM [125I]-OX-A; read-out: OX1 (IC50)
Reported IC50 by item:

Field: example entries. Status: answers known.
COMPOUND STRUCTURE STRING	IC50
O=C(Nc1ccc(F)cn1)[C@@H]1C[C@@]1(COc1c[nH]c(=O)nc1C(F)(F)F)c1cc(F)cc(F)c1	> 0.2 µM
Cc1ncc(N(C)C[C@@]2(c3cccc(F)c3)C[C@H]2C(=O)Nc2ccc(F)c(F)c2)c(C)n1	> 0.2 µM
Cc1ncc(OC[C@@]2(c3ccccc3)C[C@H]2C(=O)Nc2cnc(Cl)c(C(F)(F)F)c2)c(C)n1	> 2 µM

Which value of IC50 has been reported for COCc1nc(C)ncc1OC[C@@]1(c2cc(F)cc(OC)c2)C[C@H]1C(=O)Nc1cc(C)c(F)cn1 in the records?
< 0.002 µM

* * *

Reported log10 of IC50 by item:
- ASSAY SYSTEM: OX2 (Homo sapiens)
- Sequence (O43614 whole entry): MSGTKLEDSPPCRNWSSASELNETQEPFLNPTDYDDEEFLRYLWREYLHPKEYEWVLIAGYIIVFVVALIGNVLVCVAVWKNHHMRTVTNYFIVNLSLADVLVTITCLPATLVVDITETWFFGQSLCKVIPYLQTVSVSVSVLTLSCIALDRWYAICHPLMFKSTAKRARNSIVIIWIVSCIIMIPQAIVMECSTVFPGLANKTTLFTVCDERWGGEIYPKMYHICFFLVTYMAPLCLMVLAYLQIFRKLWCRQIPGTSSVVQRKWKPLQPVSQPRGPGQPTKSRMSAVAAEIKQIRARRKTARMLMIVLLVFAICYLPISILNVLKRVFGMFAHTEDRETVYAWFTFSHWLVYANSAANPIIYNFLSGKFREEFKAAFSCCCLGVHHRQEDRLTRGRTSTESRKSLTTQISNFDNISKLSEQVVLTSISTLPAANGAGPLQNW
- ASSAY OVERVIEW: Measurement of orexin receptor-binding ability ([125I]-OX-A, cell membranes, OX2)
- Parameters: expressed in transfected cells; host or cells: CHO cells (membrane preparation)
- EXPERIMENTAL PARAMETERS: OX2 (IC50) nM, membranes of recombinant CHO cells expressing OX2, 0.2 nM [125I]-OX-A
Hey, these are logged values: log10 of IC50, nM being the unit before logging.

COMPOUND	log10 of IC50
Cc1ncc(OC[C@@]2(c3cccc(F)c3)C[C@H]2C(=O)Nc2ccncc2)c(C)n1	1.98

Consider the additional compound presented here.
Notebook: pull reported log10 of IC50 for OX2 (Homo sapiens), entry Cc1ccc(C2(COc3cnc(C)nc3C)CC2C(=O)Nc2ccc(Cl)cn2)cc1 (stereo not drawn)
1.54

* * *

Reported pIC50 by item:
- ASSAY SYSTEM: OX1 (Homo sapiens)
- Sequence (O43613 1-425): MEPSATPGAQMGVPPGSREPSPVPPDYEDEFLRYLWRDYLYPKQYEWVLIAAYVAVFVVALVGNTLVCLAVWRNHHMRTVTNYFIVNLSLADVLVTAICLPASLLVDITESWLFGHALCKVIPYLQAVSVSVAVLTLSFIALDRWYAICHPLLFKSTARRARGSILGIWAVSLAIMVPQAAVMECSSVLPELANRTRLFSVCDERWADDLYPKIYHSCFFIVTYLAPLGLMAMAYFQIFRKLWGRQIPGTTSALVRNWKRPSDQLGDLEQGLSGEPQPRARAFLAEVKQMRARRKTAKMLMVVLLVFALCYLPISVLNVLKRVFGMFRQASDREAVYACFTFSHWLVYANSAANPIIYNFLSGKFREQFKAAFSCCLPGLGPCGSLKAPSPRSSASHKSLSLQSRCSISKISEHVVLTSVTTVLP
- ASSAY OVERVIEW: Measurement of orexin receptor-binding ability ([125I]-OX-A, cell membranes, OX1)
- Parameters: expressed in transfected cells; host or cells: CHO cells (membrane preparation)
- EXPERIMENTAL PARAMETERS: membranes of recombinant CHO cells expressing OX1, 0.2 nM [125I]-OX-A; read-out: OX1 (IC50)
- Protocol: 1. Measurement of Orexin Receptor-Binding Ability The assay was carried out using a 96-well Wheat Germ Agglutinin Flash Plate (PerkinElmer). The volume in a single assay well was 100 ul, and the composition of the reaction solution was as follows: […] Cell membranes were prepared from recombinant CHO cells that expressed OX2 or OX1. […] Finally, the radioactivity of each well was measured using a scintillation counter (TopCount, PerkinElmer).
Scale note: pIC50 = -log10(concentration in M).

Field: example entries. Status: answers known.
MOLECULE	pIC50
Cc1ncc(N(C)C[C@@]2(c3ccccc3)C[C@H]2C(=O)Nc2cc(C)c(Cl)cn2)c(C)n1 [Example 301]	6.76
Cc1ncc(N(C)C[C@@]2(c3cccc(F)c3)C[C@H]2C(=O)Nc2cc(C)c(Cl)cn2)c(C)n1 [Example 295]	8.30
Cc1ncc(OC[C@@]2(c3ccccc3)C[C@H]2C(=O)Nc2cccnc2)c(C)n1 [Example 66]	6.40
COc1cc(NC(=O)[C@@H]2C[C@@]2(COc2cnc(C)nc2C)c2ccccc2)cnc1F [Example 327]	6.72
CCc1nc(C)ncc1OC[C@@]1(c2ccccc2)C[C@H]1C(=O)Nc1ccc(Cl)cn1 [Example 121]	8.00
Cc1cc(NC(=O)[C@@H]2C[C@@]2(COc2cnc(C)nc2C)c2ccccc2)ccn1 [Example 28]	5.77
Cc1ncc(OC[C@@]2(c3ccccc3)C[C@H]2C(=O)Nc2cccc(Cl)n2)c(C)n1 [Example 12]	6.61
Cc1ncc(OC[C@@]2(c3ccccc3)C[C@H]2C(=O)Nc2ccc3c(c2)N(C)C(=O)CO3)c(C)n1 [Example 22]	6.56

Notebook: pull reported pIC50 for OX1 (Homo sapiens), entry Cc1ncc(OC[C@@]2(c3ccccc3)C[C@H]2C(=O)Nc2cc(C#N)ccn2)c(C)n1 [Example 46]
6.37

Cc1ncc(OC[C@@]2(c3ccccc3)C[C@H]2c2nc3cc(F)ccc3[nH]2)c(C)n1 [Example 303] , same question.
7.12

COCc1nc(C)ncc1OC[C@@]1(c2cccc(F)c2)C[C@H]1C(=O)Nc1cccc(F)c1 [Example 195] , same question.
8.22

COCc1nc(C)ncc1OC[C@@]1(c2cc(F)cc(F)c2)C[C@H]1C(=O)Nc1ccccn1 [Example 218] , same question.
8.00

Cc1cccc(C2(COc3cnc(C)nc3C)CC2C(=O)Nc2cccnc2)c1 (stereo not drawn) [Example 177] , same question.
6.48
